Here we list molecules with their recorded IC50 when tested on IRAK4 (Homo sapiens (Human), UniProt Q9NWZ3).
Sequence (Q9NWZ3 whole entry, species assumed): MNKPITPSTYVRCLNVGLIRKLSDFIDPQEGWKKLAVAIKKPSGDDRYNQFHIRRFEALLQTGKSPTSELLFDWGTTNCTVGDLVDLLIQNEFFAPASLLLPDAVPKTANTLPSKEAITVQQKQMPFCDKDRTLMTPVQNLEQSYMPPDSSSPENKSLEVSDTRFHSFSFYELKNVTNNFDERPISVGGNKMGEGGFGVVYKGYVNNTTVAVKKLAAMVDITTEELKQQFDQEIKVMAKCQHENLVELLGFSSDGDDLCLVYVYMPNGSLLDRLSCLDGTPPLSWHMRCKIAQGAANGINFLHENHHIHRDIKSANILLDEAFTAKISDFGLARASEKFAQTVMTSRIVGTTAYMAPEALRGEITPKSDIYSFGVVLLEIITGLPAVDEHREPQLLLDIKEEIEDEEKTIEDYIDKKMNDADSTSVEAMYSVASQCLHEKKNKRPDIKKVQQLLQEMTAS
Give the value, in units of nM, as a plain number.

These recorded examples may help you get a feel for the data.
1) CC(C)Nc1c(C(=O)NCC(C)(C)CO)cnc2sc(-c3cncs3)cc12 [Example 46]; 272
2) O=C(N[C@H]1CC[C@H](O)CC1)c1cnc2sc(-c3cncs3)cc2c1NC1COC1 [Example 54]; 193
3) CC(C)Nc1c(C(=O)NC[C@@H](F)C(C)(C)O)cnc2sc(-c3cccc(C#N)c3)cc12 [Example 24]; 16.8

**Q:** Lab note: need IC50 with IRAK4 (Homo sapiens (Human), UniProt Q9NWZ3) for entry CC(C)(O)[C@H](F)CNC(=O)c1cnc2sc(-c3ccccc3)nc2c1NC1CCCC1 [Example 3] , please look it up.
**A:** 34

====

Here we list compounds with their recorded IC50 when tested on IRAK4 (Homo sapiens (Human)).

These recorded examples may help you get a feel for the data.
1) CC(C)Nc1c(C(=O)NC[C@@H](F)C(C)(C)O)cnc2sc(-c3c[nH]c4ncc(F)cc34)cc12; 75.6 nM
2) CC(C)Nc1c(C(=O)NC[C@@H](F)C(C)(C)O)cnc2sc(-c3ccc(C#N)nc3)cc12 [Example 25]; 18.9 nM
3) CC(C)(O)[C@H](F)CNC(=O)c1cnc2sc(-c3ccccc3)nc2c1NC1CCOCC1; 7.9 nM

// below: IC50 requested for another compound
**Q:** Lab note: need IC50 with IRAK4 (Homo sapiens (Human)) for entry `C[C@H](CO)Nc1c(C(=O)NC[C@@H](F)C(C)(C)O)cnc2sc(-c3ccccc3)nc12` , please look it up.
**A:** 39.8 nM

====

The following molecules are shown together with reported EC50 values.
# Test system: IL-6 levels in human whole blood stimulated with a TLR2 agonist (lipoteichoic acid)
# assay_remarks: IRAK4 Whole Blood Assay
# Format: cell-based
# protocol_conditions: 10 μg/mL lipoteichoic acid for 5 hours, IL-6 readout
Give the value, in units of µM, as a plain number.

These recorded examples may help you get a feel for the data.
1. CC(C)Nc1c(C(=O)NC[C@@H](F)C(C)(C)O)cnc2sc(-c3ccc(=O)[nH]c3)cc12 [Example 59]; 0.19
2. CC(C)Nc1c(C(=O)NC[C@@H](F)C(C)(C)O)cnc2sc(-c3ccncc3)cc12 [Example 23]; 4.25
3. CC(C)Nc1c(C(=O)NCCC2(O)CC(F)(F)C2)cnc2sc(-c3cncs3)cc12 [Example 63]; 2.34

// below: EC50 requested for another molecule
**Q:** Can you look up the measured EC50 of CC(C)CCNC(=O)c1cnc2sc(-c3ccncc3)cc2c1NC(C)C [Example 29] for me?
**A:** 2.4

====

Here we list molecules with their recorded log10(IC50) when tested on IRAK4 (Homo sapiens (Human), UniProt Q9NWZ3).
Quick note: numbers are log10 of IC50, with nM as the unit.

1. CC(C)CCNC(=O)c1cnc2sc(-c3ccncc3)cc2c1NC(C)C; 1.11

**Q:** Can you look up the measured log10(IC50) of `CC(C)(O)[C@H](F)CNC(=O)c1cnc2sc(-c3cncs3)cc2c1Nc1cnn(CC(F)F)c1` for me?
**A:** 1.86

**Q:** Can you look up the measured log10(IC50) of CC(C)Nc1c(C(=O)NC[C@@H](F)C(C)(C)O)cnc2sc(-c3ccc(C#N)nc3)cc12 [Example 64] for me?
**A:** 0.93

**Q:** Can you look up the measured log10(IC50) of `CC(C)Nc1c(C(=O)NCc2ncn[nH]2)cnc2sc(-c3cncs3)cc12` for me?
**A:** 1.09

**Q:** Can you look up the measured log10(IC50) of `CC(C)Nc1c(C(=O)NC[C@@H](F)C(C)(C)O)cnc2sc(-c3ccnnc3)cc12` for me?
**A:** 1.01

**Q:** Can you look up the measured log10(IC50) of `CC(C)Nc1c(C(=O)NC[C@@H](F)C(C)(C)O)cnc2sc(Nc3ccc(S(C)(=O)=O)cc3)nc12` for me?
**A:** 2.90

**Q:** Can you look up the measured log10(IC50) of `CC(C)Nc1c(C(=O)NCCc2ccncc2)cnc2sc(-c3ccc(=O)[nH]c3)cc12` for me?
**A:** 0.72

**Q:** Can you look up the measured log10(IC50) of `CC(C)CCc1nc(-c2cnc3sc(-c4cncs4)cc3c2NC(C)C)n[nH]1` for me?
**A:** 2.46

**Q:** Can you look up the measured log10(IC50) of `CC(C)CCc1cn(-c2cnc3sc(-c4ccncc4)cc3c2NC(C)C)nn1` for me?
**A:** 1.64

**Q:** Can you look up the measured log10(IC50) of `CC(C)CCNC(=O)c1cnc2sc(-c3cncs3)cc2c1NC(C)C` for me?
**A:** 0.88

**Q:** Can you look up the measured log10(IC50) of `CC(C)Nc1c(C(=O)NCCc2cccnc2)cnc2sc(-c3ccc(=O)[nH]c3)cc12` for me?
**A:** 0.83

**Q:** Can you look up the measured log10(IC50) of `CC(C)Nc1c(C(=O)NC[C@@H](F)C(C)(C)O)cnc2sc(-c3cncs3)cc12` for me?
**A:** 0.30

**Q:** Can you look up the measured log10(IC50) of `CC(C)Nc1c(C(=O)NCCC(C)(C)O)cnc2sc(-c3cncs3)cc12` for me?
**A:** 0.91

**Q:** Can you look up the measured log10(IC50) of `CC(C)Nc1c(C(=O)NC[C@@H](F)C(C)(C)O)cnc2sc(-c3ccc(=O)[nH]c3)cc12` for me?
**A:** 0.58

**Q:** Can you look up the measured log10(IC50) of `CC(C)Nc1c(C(=O)NC[C@@H](F)C(C)(C)O)cnc2sc(-c3ccc4nccn4c3)cc12` for me?
**A:** 1.44

**Q:** Can you look up the measured log10(IC50) of CC(O)CCNC(=O)c1cnc2sc(-c3cncs3)cc2c1NC(C)C (stereo not shown) for me?
**A:** 1.03

====

# Tested on: IL-6 levels in human whole blood stimulated with a TLR2 agonist (lipoteichoic acid)
# assay_remarks: IRAK4 Whole Blood Assay
# Assay type: cell-based
# protocol_conditions: 10 μg/mL lipoteichoic acid for 5 hours, IL-6 readout
# Procedure: Human whole blood containing the anti-coagulant ACD-A was plated in 384-well plate (25 μL/well) and incubated with compounds for 60 minutes at 37° C. in a 5% CO2 incubator. The blood was stimulated with a TLR2 agonist, 10 μg/mL final concentration of lipoteichoic acid (Invivogen, San Diego, CA) in 25 μL RPMI (Gibco) for 5 hours in a 5% CO2 incubator. […] Supernatants were harvested and analyzed for IL-6 levels by Flow Cytometry beads assay (BD Biosciences, San Jose, CA).
parameter_measured: EC50 (µM)
Give the value, in units of µM, as a plain number.

These recorded examples may help you get a feel for the data.
1. CC(C)Nc1c(C(=O)N[C@H]2CC[C@H](N)CC2)cnc2sc(-c3cncs3)cc12; 5.04
2. Cc1ncc(-c2cc3c(NC(C)C)c(C(=O)NC[C@@H](F)C(C)(C)O)cnc3s2)s1; 3.54
3. CC(C)Nc1c(C(=O)NC[C@@H](F)C(C)(C)O)cnc2sc(-c3cccnc3)cc12; 3.42

**Q:** Can you look up the measured EC50 of `CC(C)Nc1c(C(=O)NCCC(C)(C)O)cnc2sc(-c3cncs3)cc12` for me?
**A:** 0.66

====

# system_under_test: IRAK4 (Homo sapiens (Human), UniProt Q9NWZ3)
parameter_measured: pIC50
Just so you know, pIC50 here is -log10 of the concentration in molar units; reply with that number alone.

1) C[C@H](CO)Nc1c(C(=O)NCCS(C)(=O)=O)cnc2sc(-c3ccccc3)nc12; 6.13
2) O=C(N[C@H]1CC[C@H](O)CC1)c1cnc2sc(-c3cncs3)cc2c1Nc1cnn(CC(F)F)c1; 6.39
3) CC(C)Nc1c(C(=O)NC[C@@H](F)C(C)(C)O)cnc2sc(Nc3ccc(-n4cccn4)cc3)nc12; 5.62
4) Cc1cc(CNC(=O)c2cnc3sc(-c4cncs4)cc3c2NC(C)C)on1; 7.22

**Q:** Can you look up the measured pIC50 of `CC(C)Nc1c(C(=O)NCC2(CO)COC2)cnc2sc(-c3cncs3)cc12` for me?
**A:** 6.67

**Q:** Can you look up the measured pIC50 of CC(C)Nc1c(C(=O)NC2CC(O)C2)cnc2sc(-c3cncs3)cc12 (centres unmarked) for me?
**A:** 7.01

**Q:** Can you look up the measured pIC50 of `CCNc1c(C(=O)NC[C@@H](F)C(C)(C)O)cnc2sc(-c3ccccc3)nc12` for me?
**A:** 7.34

**Q:** Can you look up the measured pIC50 of CC(C)Nc1c(C(=O)NCCC2CCNC2)cnc2sc(-c3ccc(=O)[nH]c3)cc12 (centres unmarked) for me?
**A:** 7.65
